- Experiment notes: Cytotoxic effect on mammalian cells, Vero
- Format: cell-based
- Condition summary: African green monkey, Vero cells
Measure name: CC50 (µM)
Lab book: enter the figure in µM, no units written.

Given item C=C/C(C)=C/CC=C(C)C [β-ocimene, beta-3,7-dimethyl-1,3,6-octatriene] , the value recorded as its CC50 is 299

Given item C[C@@H]1[C@H](O)[C@@H](C)/C=C/C=C/C=C/C=C/C=C/C=C/C=C/[C@H](O[C@@H]2O[C@H](C)[C@@H](O)[C@H](N)[C@@H]2O)C[C@@H]2O[C@](O)(C[C@@H](O)C[C@@H](O)[C@H](O)CC[C@@H](O)C[C@@H](O)CC(=O)O[C@H]1C)C[C@H](O)[C@H]2C(=O)O [Amphotericin B, reference compound] , the value recorded as its CC50 is 2.46

----------
- Experiment notes: Cytotoxic effect on mammalian cells, Vero
- Format: cell-based
- Condition summary: African green monkey, Vero cells; 200 µM
Measure name: cytotoxicity at 200 µM (%)
Lab book: enter the figure in %, no units written.

Given item C=C/C(C)=C/CC=C(C)C , the value recorded as its cytotoxicity at 200 µM is 36.2

----------
- Experiment notes: Cytotoxic effect on mammalian cells, Vero
- Type: cell-based
- Condition summary: African green monkey, Vero cells; 400 µM
Measure name: cytotoxicity at 400 µM (%)
Lab book: enter the figure in %, no units written.

Given item C=C/C(C)=C/CC=C(C)C [β-ocimene, beta-3,7-dimethyl-1,3,6-octatriene] , the value recorded as its cytotoxicity at 400 µM is 69.2

----------
Exercise: state measured CC50 at 72 h for each of the compounds provided.
- Experiment notes: Cytotoxic effect on mammalian cells (MTT, 72 h), RAW 264.7
- Assay type: cell-based
- Condition summary: mouse, RAW 264.7 macrophages, pH 7.2, MTT
Lab book: enter the figure in µM, no units written.

Given item C=C/C(C)=C/CC=C(C)C , the value recorded as its CC50 at 72 h is 114

Given item C[C@@H]1[C@H](O)[C@@H](C)/C=C/C=C/C=C/C=C/C=C/C=C/C=C/[C@H](O[C@@H]2O[C@H](C)[C@@H](O)[C@H](N)[C@@H]2O)C[C@@H]2O[C@](O)(C[C@@H](O)C[C@@H](O)[C@H](O)CC[C@@H](O)C[C@@H](O)CC(=O)O[C@H]1C)C[C@H](O)[C@H]2C(=O)O [Amphotericin B, reference compound] , the value recorded as its CC50 at 72 h is 0.39

----------
- Tested on: Leishmania (Leishmania) amazonensis axenic amastigotes
- Experiment notes: microbe, parasite or virus in culture
- Format: cell-based
- Condition summary: Leishmania; 72 h, MTT
Exercise: state measured EC50 for each of the molecules provided.
Lab book: enter the figure in nM, no units written.

C=C/C(C)=C/CC=C(C)C [β-ocimene, beta-3,7-dimethyl-1,3,6-octatriene] on Leishmania (Leishmania) amazonensis axenic amastigotes gives EC50 = 1120

C[C@@H]1[C@H](O)[C@@H](C)/C=C/C=C/C=C/C=C/C=C/C=C/C=C/[C@H](O[C@@H]2O[C@H](C)[C@@H](O)[C@H](N)[C@@H]2O)C[C@@H]2O[C@](O)(C[C@@H](O)C[C@@H](O)[C@H](O)CC[C@@H](O)C[C@@H](O)CC(=O)O[C@H]1C)C[C@H](O)[C@H]2C(=O)O [Amphotericin B, reference compound] on Leishmania (Leishmania) amazonensis axenic amastigotes gives EC50 = 510

----------
- Experiment notes: Cytotoxic effect on mammalian cells (MTT, 72 h), RAW 264.7
- Type: cell-based
- Condition summary: mouse, RAW 264.7 macrophages, pH 7.2, 400 µM
- Procedure: RAW 264.7 lineage macrophages (available from the cell bank in Rio de Janeiro, Brazil) were used, grown in sterile bottles with DMEM medium, pH 7.2 containing 10% FBS and 1% penicillin 100 U/mL and streptomycin 100 μg/mL, and kept in an oven at 37 °C and 5% CO2. In a 96-well plate, RAW 264.7 macrophages were plated at 10^5 cells per well in 100 μL of supplemented DMEM medium. […] After 30 min of stirring, readings were taken at 540 nm. […]
Measure name: cytotoxicity at 72 h, 400 µM (%)
Lab book: enter the figure in %, no units written.

Given item C=C/C(C)=C/CC=C(C)C [β-ocimene, beta-3,7-dimethyl-1,3,6-octatriene] , the value recorded as its cytotoxicity at 72 h, 400 µM is 81.7
